Reported pKd values are given for each entry in this list.
TARGET_DESC: T1, human IL-11 (AAH12506.1, Pro22-Leu199) (human, UniProt P20809 22-199)
T1 construct: The range Pro22-Leu199 counts on AAH12506.1; The Octet runs say only 'human IL-11'; also called hIL-11
T1 chain: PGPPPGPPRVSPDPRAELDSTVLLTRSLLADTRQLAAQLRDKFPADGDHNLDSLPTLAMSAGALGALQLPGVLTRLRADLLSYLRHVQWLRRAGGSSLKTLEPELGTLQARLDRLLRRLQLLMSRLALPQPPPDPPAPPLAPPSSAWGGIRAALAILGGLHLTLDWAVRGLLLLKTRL
TEST_METHOD_NOTES: BLI (Octet), antibody captured, human IL-11 in solution
Expect pKd as a plain number equal to -log10 of the molar concentration.

BINDER	pKd
hz18A10-VHm11 + hz18A10-VLm19 (antibody, V domains shown, Constant regions not restated for this antibody) VH: EVQLVQSGAEVKKPGASVKVSCKASGYTFTHYNMDWVRQAPGQGLEWMGTIYPGNGDTSYNQKFKGRVTMTRDTSTSTVYMELSSLRSEDTAVYYCARGDLYALDYWGQGTLVTVSS VL: DIQMTQSPSSLSASVGDRVTITCKASQSVYRDVAWYQQKPGKAPKLLIYSASNRYTGVPSRFSGSGSGTDFTFTISSLQPEDIATYYCQHDYSSPYTFGQGTKLEIK	9.86

## Input Quick one: pKd of hz18A10-VH + hz18A10-VLm18 (antibody, V domains shown, Constant regions not restated for this antibody) VH: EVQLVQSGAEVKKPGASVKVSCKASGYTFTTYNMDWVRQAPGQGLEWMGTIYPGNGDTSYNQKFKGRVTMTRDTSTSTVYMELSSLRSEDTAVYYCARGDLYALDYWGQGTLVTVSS VL: DIQMTQSPSSLSASVGDRVTITCKASQSVYRDVAWYQQKPGKAPKLLIYRASSRYTGVPSRFSGSGSGTDFTFTISSLQPEDIATYYCQHDYSSPYTFGQGTKLEIK ?
## Output 9.38

## Input Quick one: pKd of hz18A10-VHm2 + hz18A10-VL (antibody, V domains shown, Constant regions not restated for this antibody) VH: EVQLVQSGAEVKKPGASVKVSCKASGYTFTTYNMDWVRQAPGQGLEWMGTIYPGNGDTSYNQKFKGRVTMTRDTSTSTVYMELSSLRSEDTAVYYCARGDLHYLDYWGQGTLVTVSS VL: DIQMTQSPSSLSASVGDRVTITCKASQSVSNDVAWYQQKPGKAPKLLIYSASNRYTGVPSRFSGSGSGTDFTFTISSLQPEDIATYYCQHDYSSPYTFGQGTKLEIK ?
## Output 8.64

## Input Quick one: pKd of hz18A10-VH + hz18A10-VLm5 (antibody, V domains shown, Constant regions not restated for this antibody) VH: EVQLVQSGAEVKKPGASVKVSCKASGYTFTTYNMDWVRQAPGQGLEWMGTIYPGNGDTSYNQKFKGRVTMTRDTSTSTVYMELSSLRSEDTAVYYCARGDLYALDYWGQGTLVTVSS VL: DIQMTQSPSSLSASVGDRVTITCKASQSVSNDIAWYQQKPGKAPKLLIYSASNRYTGVPSRFSGSGSGTDFTFTISSLQPEDIATYYCQHDYSSPYTFGQGTKLEIK ?
## Output 8.39

## Input Quick one: pKd of hz18A10-VHm4 + hz18A10-VLm18 (antibody, V domains shown, Constant regions not restated for this antibody) VH: EVQLVQSGAEVKKPGASVKVSCKASGYTFTTYNIDWVRQAPGQGLEWMGTIYPGNGDTSYNQKFKGRVTMTRDTSTSTVYMELSSLRSEDTAVYYCARGDLYALDYWGQGTLVTVSS VL: DIQMTQSPSSLSASVGDRVTITCKASQSVYRDVAWYQQKPGKAPKLLIYRASSRYTGVPSRFSGSGSGTDFTFTISSLQPEDIATYYCQHDYSSPYTFGQGTKLEIK ?
## Output 9.49

## Input Quick one: pKd of hz18A10-VHm1 + hz18A10-VLm14 (antibody, V domains shown, Constant regions not restated for this antibody) VH: EVQLVQSGAEVKKPGASVKVSCKASGYTFTTYNMDWVRQAPGQGLEWMGTIYPGNGDTSYNQKFKGRVTMTRDTSTSTVYMELSSLRSEDTAVYYCARGDLHFLDYWGQGTLVTVSS VL: DIQMTQSPSSLSASVGDRVTITCKASQSVSNDVAWYQQKPGKAPKLLIYRASRRYTGVPSRFSGSGSGTDFTFTISSLQPEDIATYYCQHDYSSPYTFGQGTKLEIK ?
## Output 8.99

## Input Quick one: pKd of hz18A10-VHm18 + hz18A10-VLm19 (antibody, V domains shown, Constant regions not restated for this antibody) VH: EVQLVQSGAEVKKPGASVKVSCKASGYTFTHYNMDWVRQAPGQGLEWMGTIYPGEGDTSYNQKFKGRVTMTRDTSTSTVYMELSSLRSEDTAVYYCARGDLYALDYWGQGTLVTVSS VL: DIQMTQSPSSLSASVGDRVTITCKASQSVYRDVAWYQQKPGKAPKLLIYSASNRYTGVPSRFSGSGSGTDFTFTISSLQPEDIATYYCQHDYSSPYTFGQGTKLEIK ?
## Output 9.50

## Input Quick one: pKd of hz18A10-VHm3 + hz18A10-VLm19 (antibody, V domains shown, Constant regions not restated for this antibody) VH: EVQLVQSGAEVKKPGASVKVSCKASGYTFTTYDMDWVRQAPGQGLEWMGTIYPGNGDTSYNQKFKGRVTMTRDTSTSTVYMELSSLRSEDTAVYYCARGDLYALDYWGQGTLVTVSS VL: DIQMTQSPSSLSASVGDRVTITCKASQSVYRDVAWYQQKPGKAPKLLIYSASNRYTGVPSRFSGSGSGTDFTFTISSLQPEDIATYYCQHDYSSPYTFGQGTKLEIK ?
## Output 9.17

## Input Quick one: pKd of hz18A10-VHm6 + hz18A10-VLm9 (antibody, V domains shown, Constant regions not restated for this antibody) VH: EVQLVQSGAEVKKPGASVKVSCKASGYTFNHYDMDWVRQAPGQGLEWMGTIYPGNGDTSYNQKFKGRVTMTRDTSTSTVYMELSSLRSEDTAVYYCARGDLYALDYWGQGTLVTVSS VL: DIQMTQSPSSLSASVGDRVTITCKASQSVYSDVAWYQQKPGKAPKLLIYSASNRYTGVPSRFSGSGSGTDFTFTISSLQPEDIATYYCQHDYSSPYTFGQGTKLEIK ?
## Output 11.14

## Input Quick one: pKd of hz18A10-VHm19 + hz18A10-VLm19 (antibody, human IgG1, kappa, V domains shown, named hz18A10m19; also called hz18A10m19) VH: EVQLVQSGAEVKKPGASVKVSCKASGYTFTHYNMDWVRQAPGQGLEWMGTIYPGNADTSYNQKFKGRVTMTRDTSTSTVYMELSSLRSEDTAVYYCARGDLYALDYWGQGTLVTVSS VL: DIQMTQSPSSLSASVGDRVTITCKASQSVYRDVAWYQQKPGKAPKLLIYSASNRYTGVPSRFSGSGSGTDFTFTISSLQPEDIATYYCQHDYSSPYTFGQGTKLEIKR ?
## Output 10.00
